Reported values: Ki for H4 (Homo sapiens), one per item.

Observe how each entry below is paired with its result.
{"columns": ["compound", "measured-property", "measured-result"],
 "data": [
  ["CCNC1(c2cccc(OC)c2)CCCCC1=O (racemic)", "Ki", "> 10 µM"],
  ["COc1ccc(C2(N3CCCCC3)CCCCC2)cc1", "Ki", "> 10 µM"]
]}

Next compound, please.
// returns Ki for `COc1cccc(C2(N3CCCCC3)CCCCC2)c1` with H4 (Homo sapiens); value = > 10 µM

###

Reported values: pKi for Beta2 (Homo sapiens, UniProt P07550), one per item.
pKi: −log10 of the molar value.

// returns pKi for COc1ccc(C2(N3CCCCC3)CCCCC2)cc1 [4-MeO-PCP] with Beta2 (Homo sapiens, UniProt P07550); value = < 5.00

// returns pKi for COc1cccc(C2(N3CCCCC3)CCCCC2)c1 [3-MeO-PCP] with Beta2 (Homo sapiens, UniProt P07550); value = < 5.00

// returns pKi for CCNC1(c2cccc(OC)c2)CCCCC1=O (racemic) [Methoxetamine] with Beta2 (Homo sapiens, UniProt P07550); value = < 5.00

###

target: Sigma1 (Homo sapiens, UniProt Q99720)
Sequence (Q99720 whole entry): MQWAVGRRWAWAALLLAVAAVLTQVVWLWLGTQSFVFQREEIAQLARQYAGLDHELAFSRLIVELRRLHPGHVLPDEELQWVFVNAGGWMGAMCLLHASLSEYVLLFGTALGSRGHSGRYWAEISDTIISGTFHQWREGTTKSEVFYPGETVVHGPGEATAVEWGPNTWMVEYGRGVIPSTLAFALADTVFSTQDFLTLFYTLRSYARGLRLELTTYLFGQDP
measured-property: Ki (nM)
Field: numeric (nM). Do not append units.

Observe how each entry below is paired with its result.
{"columns": ["compound", "result-unit", "Ki"],
 "data": [
  ["CCNC1(c2cccc(OC)c2)CCCCC1 [3-MeO-PCE]", "nM", 4520],
  ["COc1ccc(C2(N3CCCCC3)CCCCC2)cc1 [4-MeO-PCP]", "nM", 296]
]}

Next compound, please.
Just so you know, measured Ki for COc1cccc(C2(N3CCCCC3)CCCCC2)c1 [3-MeO-PCP] came out at 42

###

molecular target: NMDA Receptor (MK-801 binding site); assay: PDSP radioligand binding, NMDA receptor; conditions: Table S1; unit inferred; read-out: Ki NMDA
measured-property: Ki (nM)
Field: numeric (nM). Do not append units.

// returns Ki for CCNC1(c2cccc(OC)c2)CCCCC1=O (racemic) with NMDA Receptor (MK-801 binding site); value = 338

###

Measured pKi values are reported for all entries that follow.
Molecular target: 5-HT1A (Homo sapiens)
Sequence (P08908 1-422): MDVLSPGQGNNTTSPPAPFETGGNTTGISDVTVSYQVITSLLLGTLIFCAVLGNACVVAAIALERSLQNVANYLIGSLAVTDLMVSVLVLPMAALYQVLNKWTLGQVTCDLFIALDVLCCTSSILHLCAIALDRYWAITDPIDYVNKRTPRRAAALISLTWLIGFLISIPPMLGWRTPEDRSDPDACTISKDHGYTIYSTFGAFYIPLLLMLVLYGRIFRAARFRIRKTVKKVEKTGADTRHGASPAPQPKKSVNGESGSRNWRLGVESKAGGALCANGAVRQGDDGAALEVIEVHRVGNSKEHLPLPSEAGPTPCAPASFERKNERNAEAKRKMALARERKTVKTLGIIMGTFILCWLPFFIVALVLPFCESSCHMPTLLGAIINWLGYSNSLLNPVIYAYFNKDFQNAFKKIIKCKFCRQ
pKi: −log10 of the molar value.

{"columns": ["compound", "pKi"],
 "data": [
  ["COc1cccc(C2(N3CCCCC3)CCCCC2)c1 [3-MeO-PCP]", "< 5.00"],
  ["CCNC1(c2cccc(OC)c2)CCCCC1=O (racemic) [Methoxetamine]", "< 5.00"]
]}

Next compound, please.
Just so you know, measured pKi for COc1ccc(C2(N3CCCCC3)CCCCC2)cc1 [4-MeO-PCP] came out at < 5.00

###

biological target: BZP Rat Brain Site; assay: PDSP radioligand binding, benzodiazepine site on GABA-A; settings: Table S1; unit inferred
pKi: −log10 of the molar value.
measured-property: pKi

Observe how each entry below is paired with its result.
{"columns": ["compound", "pKi"],
 "data": [
  ["COc1ccc(C2(N3CCCCC3)CCCCC2)cc1", "< 5.00"],
  ["CCNC1(c2cccc(OC)c2)CCCCC1=O (racemic)", "< 5.00"]
]}

Next compound, please.
Just so you know, measured pKi for `COc1cccc(C2(N3CCCCC3)CCCCC2)c1` came out at < 5.00

###

Measured pKi values are reported for all entries that follow.
target: A2B2 (Rattus norvegicus, UniProt P12389+P12390); experiment: PDSP radioligand binding, nicotinic receptor α2 ß2
Sequence (P12389 28-511): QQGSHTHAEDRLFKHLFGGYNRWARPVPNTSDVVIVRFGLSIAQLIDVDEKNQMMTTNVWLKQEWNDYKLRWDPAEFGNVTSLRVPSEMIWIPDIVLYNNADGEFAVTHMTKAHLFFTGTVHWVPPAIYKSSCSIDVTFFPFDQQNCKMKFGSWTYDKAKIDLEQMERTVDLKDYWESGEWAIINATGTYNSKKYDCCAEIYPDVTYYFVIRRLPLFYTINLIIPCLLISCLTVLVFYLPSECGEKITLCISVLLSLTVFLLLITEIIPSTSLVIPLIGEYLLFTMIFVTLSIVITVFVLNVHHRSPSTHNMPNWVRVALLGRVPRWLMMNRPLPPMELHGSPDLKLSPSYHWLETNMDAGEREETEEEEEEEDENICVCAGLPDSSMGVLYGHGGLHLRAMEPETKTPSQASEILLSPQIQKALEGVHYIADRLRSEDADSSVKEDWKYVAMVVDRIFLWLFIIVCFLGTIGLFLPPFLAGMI
Sequence (P12390 25-500): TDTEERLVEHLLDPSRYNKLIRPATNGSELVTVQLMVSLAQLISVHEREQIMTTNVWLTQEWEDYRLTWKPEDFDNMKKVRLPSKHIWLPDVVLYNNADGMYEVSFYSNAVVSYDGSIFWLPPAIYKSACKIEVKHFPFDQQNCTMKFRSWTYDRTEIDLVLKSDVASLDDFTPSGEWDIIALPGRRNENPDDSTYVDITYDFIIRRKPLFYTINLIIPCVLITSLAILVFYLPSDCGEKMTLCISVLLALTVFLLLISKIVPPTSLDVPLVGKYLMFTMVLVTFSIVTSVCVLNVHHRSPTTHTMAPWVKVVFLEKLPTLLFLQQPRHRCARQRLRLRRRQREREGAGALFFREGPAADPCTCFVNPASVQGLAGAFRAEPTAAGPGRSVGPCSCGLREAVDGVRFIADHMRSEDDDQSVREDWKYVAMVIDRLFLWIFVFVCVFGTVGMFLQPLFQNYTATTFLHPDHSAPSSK
pKi: −log10 of the molar value.

Observe how each entry below is paired with its result.
{"columns": ["compound", "pKi"],
 "data": [
  ["COc1cccc(C2(N3CCCCC3)CCCCC2)c1", "< 5.00"],
  ["CCNC1(c2cccc(OC)c2)CCCCC1=O (racemic)", "< 5.00"]
]}

Next compound, please.
Just so you know, measured pKi for `COc1ccc(C2(N3CCCCC3)CCCCC2)cc1` came out at < 5.00

###

target: GABAB (Homo sapiens, UniProt Q9UBS5)
Sequence (Q9UBS5 15-961 limits assumed): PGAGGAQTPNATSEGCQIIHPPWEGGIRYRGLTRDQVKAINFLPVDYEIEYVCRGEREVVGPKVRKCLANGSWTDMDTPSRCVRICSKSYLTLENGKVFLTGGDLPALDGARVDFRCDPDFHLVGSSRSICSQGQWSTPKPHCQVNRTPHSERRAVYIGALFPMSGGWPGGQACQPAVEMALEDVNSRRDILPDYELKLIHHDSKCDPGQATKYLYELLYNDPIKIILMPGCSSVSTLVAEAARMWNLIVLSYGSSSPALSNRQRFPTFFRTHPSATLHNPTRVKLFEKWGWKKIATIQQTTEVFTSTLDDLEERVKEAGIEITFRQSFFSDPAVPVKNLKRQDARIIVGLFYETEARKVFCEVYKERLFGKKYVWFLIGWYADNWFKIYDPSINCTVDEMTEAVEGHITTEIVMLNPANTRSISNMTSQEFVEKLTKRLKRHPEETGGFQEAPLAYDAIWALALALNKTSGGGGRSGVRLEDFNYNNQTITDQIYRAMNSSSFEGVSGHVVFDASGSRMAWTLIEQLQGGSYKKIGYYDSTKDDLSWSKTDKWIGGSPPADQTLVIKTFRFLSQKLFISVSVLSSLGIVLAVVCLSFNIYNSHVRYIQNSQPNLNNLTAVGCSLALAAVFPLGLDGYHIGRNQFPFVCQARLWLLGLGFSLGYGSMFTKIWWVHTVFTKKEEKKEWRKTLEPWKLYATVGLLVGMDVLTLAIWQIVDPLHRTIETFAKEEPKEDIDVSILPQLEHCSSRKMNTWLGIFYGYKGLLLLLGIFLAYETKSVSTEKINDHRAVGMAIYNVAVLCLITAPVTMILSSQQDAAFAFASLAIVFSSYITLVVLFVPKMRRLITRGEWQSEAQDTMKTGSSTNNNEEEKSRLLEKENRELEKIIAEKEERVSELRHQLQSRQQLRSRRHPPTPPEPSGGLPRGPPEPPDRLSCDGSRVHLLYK
Sequence (O75899 42-941 partner): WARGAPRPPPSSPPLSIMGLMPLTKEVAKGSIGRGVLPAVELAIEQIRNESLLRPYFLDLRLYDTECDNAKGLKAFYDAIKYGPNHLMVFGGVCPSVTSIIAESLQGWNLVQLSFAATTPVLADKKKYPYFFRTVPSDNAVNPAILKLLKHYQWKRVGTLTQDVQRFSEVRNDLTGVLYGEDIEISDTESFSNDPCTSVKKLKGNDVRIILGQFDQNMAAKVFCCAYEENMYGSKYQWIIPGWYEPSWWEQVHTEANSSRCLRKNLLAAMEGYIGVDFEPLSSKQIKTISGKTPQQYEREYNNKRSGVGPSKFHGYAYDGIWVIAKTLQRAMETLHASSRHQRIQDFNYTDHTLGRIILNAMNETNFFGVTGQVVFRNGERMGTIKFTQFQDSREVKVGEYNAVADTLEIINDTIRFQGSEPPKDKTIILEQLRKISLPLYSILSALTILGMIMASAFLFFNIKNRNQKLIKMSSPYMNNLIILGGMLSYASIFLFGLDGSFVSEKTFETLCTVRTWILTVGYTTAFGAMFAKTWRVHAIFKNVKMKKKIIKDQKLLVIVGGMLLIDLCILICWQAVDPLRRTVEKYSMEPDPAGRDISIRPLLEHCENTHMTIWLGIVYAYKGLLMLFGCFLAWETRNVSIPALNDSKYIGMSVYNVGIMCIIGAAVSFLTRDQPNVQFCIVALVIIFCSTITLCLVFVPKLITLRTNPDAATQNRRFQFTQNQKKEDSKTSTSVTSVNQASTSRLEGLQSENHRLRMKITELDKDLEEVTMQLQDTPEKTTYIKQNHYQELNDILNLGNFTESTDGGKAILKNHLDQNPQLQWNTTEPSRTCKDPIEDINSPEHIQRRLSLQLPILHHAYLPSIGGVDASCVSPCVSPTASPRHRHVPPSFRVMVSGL
pKi: −log10 of the molar value.
measured-property: pKi

Observe how each entry below is paired with its result.
{"columns": ["molecule", "pKi"],
 "data": [
  ["CCNC1(c2cccc(OC)c2)CCCCC1=O (racemic) [Methoxetamine]", "< 5.00"],
  ["COc1cccc(C2(N3CCCCC3)CCCCC2)c1 [3-MeO-PCP]", "< 5.00"]
]}

Next molecule, please.
Just so you know, measured pKi for COc1ccc(C2(N3CCCCC3)CCCCC2)cc1 [4-MeO-PCP] came out at < 5.00

###

Measured Ki values are reported for all entries that follow.
Target: Alpha2A (Homo sapiens, UniProt P08913)
Sequence (P08913 1-465): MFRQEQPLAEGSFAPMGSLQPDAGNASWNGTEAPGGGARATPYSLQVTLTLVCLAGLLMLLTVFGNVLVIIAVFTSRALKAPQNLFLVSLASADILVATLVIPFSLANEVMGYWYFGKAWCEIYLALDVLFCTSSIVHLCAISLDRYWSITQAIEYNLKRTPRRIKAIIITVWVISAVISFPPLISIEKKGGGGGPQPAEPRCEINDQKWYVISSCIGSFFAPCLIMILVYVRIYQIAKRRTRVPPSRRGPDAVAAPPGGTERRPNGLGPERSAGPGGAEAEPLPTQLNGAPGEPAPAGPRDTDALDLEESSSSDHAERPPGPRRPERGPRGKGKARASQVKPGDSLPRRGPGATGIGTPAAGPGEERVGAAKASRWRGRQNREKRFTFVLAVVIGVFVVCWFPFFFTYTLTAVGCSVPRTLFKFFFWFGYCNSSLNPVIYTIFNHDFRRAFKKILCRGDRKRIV

Observe how each entry below is paired with its result.
{"columns": ["molecule", "measured-result"],
 "data": [
  ["COc1ccc(C2(N3CCCCC3)CCCCC2)cc1 [4-MeO-PCP]", "> 10 µM"],
  ["COc1cccc(C2(N3CCCCC3)CCCCC2)c1 [3-MeO-PCP]", "0.964 µM"]
]}

Just so you know, measured Ki for CCNC1(c2cccc(OC)c2)CCCCC1=O (racemic) [Methoxetamine] came out at > 10 µM

###

molecular target: D2 (Homo sapiens, UniProt P14416); test: PDSP radioligand binding, dopamine receptor D2
Sequence (P14416 whole entry): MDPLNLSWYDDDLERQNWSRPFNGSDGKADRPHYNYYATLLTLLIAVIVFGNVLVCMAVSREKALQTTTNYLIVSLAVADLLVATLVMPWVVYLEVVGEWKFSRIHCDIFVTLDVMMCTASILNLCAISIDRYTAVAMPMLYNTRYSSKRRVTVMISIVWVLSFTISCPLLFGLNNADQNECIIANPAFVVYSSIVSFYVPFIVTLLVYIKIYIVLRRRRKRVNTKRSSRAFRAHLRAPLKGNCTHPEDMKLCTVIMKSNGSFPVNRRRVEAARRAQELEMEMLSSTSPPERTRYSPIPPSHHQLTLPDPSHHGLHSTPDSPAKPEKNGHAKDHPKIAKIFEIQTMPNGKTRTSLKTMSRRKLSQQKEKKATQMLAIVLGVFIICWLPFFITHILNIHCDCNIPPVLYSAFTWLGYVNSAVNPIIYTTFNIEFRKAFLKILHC
pKi: −log10 of the molar value.
measured-property: pKi

Just so you know, measured pKi for COc1ccc(C2(N3CCCCC3)CCCCC2)cc1 [4-MeO-PCP] came out at < 5.00

Just so you know, measured pKi for COc1cccc(C2(N3CCCCC3)CCCCC2)c1 [3-MeO-PCP] came out at < 5.00

Just so you know, measured pKi for CCNC1(c2cccc(OC)c2)CCCCC1=O (racemic) [Methoxetamine] came out at < 5.00

###

target: D5 (Homo sapiens)
Sequence (P21918 whole entry): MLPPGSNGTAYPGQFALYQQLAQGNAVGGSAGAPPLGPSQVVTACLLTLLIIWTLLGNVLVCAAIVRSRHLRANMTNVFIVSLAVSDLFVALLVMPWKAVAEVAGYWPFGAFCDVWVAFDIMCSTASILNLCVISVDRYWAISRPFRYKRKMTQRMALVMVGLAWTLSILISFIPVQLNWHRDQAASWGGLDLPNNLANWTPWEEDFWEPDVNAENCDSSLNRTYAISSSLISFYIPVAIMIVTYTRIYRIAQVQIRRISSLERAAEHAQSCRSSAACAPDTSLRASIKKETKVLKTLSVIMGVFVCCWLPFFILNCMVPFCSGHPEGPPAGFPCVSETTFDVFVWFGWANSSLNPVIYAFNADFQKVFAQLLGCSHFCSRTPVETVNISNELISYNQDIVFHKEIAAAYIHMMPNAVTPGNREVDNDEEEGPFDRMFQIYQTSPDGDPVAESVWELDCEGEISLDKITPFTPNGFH
Measured Ki values are reported for all entries that follow.

Observe how each entry below is paired with its result.
{"columns": ["molecule", "Ki"],
 "data": [
  ["CCNC1(c2cccc(OC)c2)CCCCC1=O (racemic)", "> 10 µM"],
  ["COc1ccc(C2(N3CCCCC3)CCCCC2)cc1", "> 10 µM"]
]}

Next molecule, please.
Just so you know, measured Ki for `COc1cccc(C2(N3CCCCC3)CCCCC2)c1` came out at > 10 µM
